# measured_target: Amyloid-beta precursor protein (Homo sapiens, UniProt P05067)
# Sequence (P05067 whole entry): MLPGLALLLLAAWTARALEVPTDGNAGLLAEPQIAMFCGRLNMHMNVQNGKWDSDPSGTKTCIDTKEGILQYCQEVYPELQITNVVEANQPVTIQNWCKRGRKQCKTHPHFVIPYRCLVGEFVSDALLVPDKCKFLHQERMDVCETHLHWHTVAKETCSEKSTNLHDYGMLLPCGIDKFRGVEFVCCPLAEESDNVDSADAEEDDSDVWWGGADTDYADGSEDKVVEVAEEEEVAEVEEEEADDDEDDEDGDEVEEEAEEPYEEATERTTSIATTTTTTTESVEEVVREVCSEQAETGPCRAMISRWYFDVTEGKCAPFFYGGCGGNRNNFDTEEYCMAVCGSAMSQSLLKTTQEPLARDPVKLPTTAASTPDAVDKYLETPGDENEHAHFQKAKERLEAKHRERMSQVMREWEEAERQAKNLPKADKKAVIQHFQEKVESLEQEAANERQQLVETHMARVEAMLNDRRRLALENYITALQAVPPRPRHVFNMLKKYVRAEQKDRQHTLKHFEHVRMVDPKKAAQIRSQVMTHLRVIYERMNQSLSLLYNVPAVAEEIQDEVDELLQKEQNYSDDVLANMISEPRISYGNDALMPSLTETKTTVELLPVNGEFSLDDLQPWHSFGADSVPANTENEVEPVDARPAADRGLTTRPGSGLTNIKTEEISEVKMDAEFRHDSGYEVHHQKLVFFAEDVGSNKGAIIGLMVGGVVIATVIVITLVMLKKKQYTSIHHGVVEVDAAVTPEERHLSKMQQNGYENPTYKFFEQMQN
# test_details: Displacement of [125I]IMPY from beta amyloid (unknown origin) isolated from alzheimer's patient brain homogenates after 2 hr by gamma counting analysis
assay_endpoint: Ki (nM)
One number for each entry, in nM.

Example entries begin here.
smiles_representation=COc1ccc2nc(/N=C/c3ccc(Br)cc3)sc2c1 assay_endpoint=Ki data_value=106
smiles_representation=COc1ccc2nc(/N=C/c3ccc(O)cc3)sc2c1 assay_endpoint=Ki data_value=34.7

Look up Ki for the entries below, preserving their order.
1. COc1ccc2nc(/N=C/c3ccc([N+](=O)[O-])cc3)sc2c1
2. COc1ccc2nc(/N=C/c3ccc(I)cc3)sc2c1
3. COc1ccc2nc(/N=C/c3ccc(N(C)C)cc3)sc2c1
4. COc1ccc(/C=N/c2nc3ccc(OC)cc3s2)cc1

515
103
4.38
10.8
